- System: Escherichia coli
- assayText: Antimicrobial activity against Escherichia […] after 24 hrs by broth microdilution method
- Type: functional
endpointName: MIC (mg/L)
Number in mg/L, nothing else.

Here are 5 compounds together with their reported answers.
IN: // query MIC value for entry `CC(C)c1csc(C(=O)N/N=C/c2ccc(N(C)C)cc2)n1`
OUT: 31.2

IN: Returns the measured MIC for the input compound. Input: `CC(C)c1csc(-c2nnc(S)n2N)n1`
OUT: 31.2

IN: Name the reported MIC value associated with the compound `C/C(=N/NC(=O)c1nc(C(C)C)cs1)c1ccc(C)cc1`
OUT: 250

IN: State the recorded MIC for this entry: `CC(C)c1csc(-c2nnc(S)o2)n1`
OUT: 31.2

IN: MIC lookup needed for `CC(C)c1csc(C(=O)N/N=C/c2ccccc2)n1` , thanks.
OUT: 31.2

More entries:
IN: Entry `C/C(=N/NC(=O)c1nc(C(C)C)cs1)c1ccc(Cl)cc1` has what MIC?
OUT: 125

IN: What does the record list as MIC for CC(=O)N1N=C(c2nc(C(C)C)cs2)OC1c1ccccc1 (stereo not drawn) ?
OUT: 62.5

IN: Please report the recorded MIC for `C/C(=N/NC(=O)c1nc(C(C)C)cs1)c1ccc(Br)cc1` .
OUT: 250

---

- Tested on: Pseudomonas aeruginosa
- assayText: Antimicrobial activity against Pseudomonas aeruginosa ATCC 10145 after 24 hrs by broth microdilution method
- Assay type: functional
- details: ATCC 10145, 24 h
endpointName: MIC (µg/mL)
Numbers only here, please. The scale is µg/mL.

Solved entries (count: 5):
IN: State the recorded MIC for this entry: `CC(=O)NNC(=O)c1nc(C(C)C)cs1`
OUT: 125

IN: Given CC(=O)N1N=C(c2nc(C(C)C)cs2)OC1c1cccc(Cl)c1Cl (stereo unspecified) , state its recorded MIC.
OUT: 31.2

IN: Dear colleague, I am looking for the recorded MIC of the following molecule: `CC(C)c1csc(C(=O)NN)n1`
OUT: 125

IN: Item under review: `CC(C)c1csc(C(=O)N/N=C/c2ccccc2)n1` . Reported MIC?
OUT: 16

IN: Returns the measured MIC for the input molecule. Input: `C/C(=N/NC(=O)c1nc(C(C)C)cs1)c1ccccc1`
OUT: 250

Consider the additional molecule presented here.
IN: For the molecule shown here, `CC(C)c1csc(C(=O)N/N=C/c2cccc(Cl)c2Cl)n1` , give the reported MIC.
OUT: 31.2

---

Reported log10 of MIC values for a set of molecules
- Tested on: Aspergillus niger
- assayText: Antimicrobial activity against Aspergillus niger ATCC 6275 after 24 hrs by broth microdilution method
- Assay type: functional
- details: ATCC 6275, 24 h
Log10 applied to MIC; unit prior to transform: µg/mL.

// below: answered molecules
IN: Record request: log10 of MIC value, item COc1cc(C2OC(c3nc(C(C)C)cs3)=NN2C(C)=O)cc(OC)c1OC (stereo unspecified)
OUT: 1.20

IN: Report log10 of MIC for `CC(=O)NNC(=O)c1nc(C(C)C)cs1` please.
OUT: 2.70

IN: Recorded log10 of MIC for `CC(C)c1csc(C(=O)N/N=C/c2ccc(N(C)C)cc2)n1` , please?
OUT: 1.80

IN: What value of measured log10 of MIC is listed for CC(=O)N1N=C(c2nc(C(C)C)cs2)OC1c1ccc([N+](=O)[O-])cc1 (stereo unspecified) ?
OUT: 1.49

IN: For the molecule `C/C(=N/NC(=O)c1nc(C(C)C)cs1)c1ccc([N+](=O)[O-])cc1` , what log10 of MIC is on record?
OUT: 2.10

Next:
IN: Value lookup for log10 of MIC; key = `CC(C)c1csc(C(=O)N/N=C/c2ccccc2)n1`
OUT: 1.49

IN: # input molecule: `CC(C)c1csc(-c2nnc(S)o2)n1` ; wanted: its log10 of MIC
OUT: 1.49

IN: What value of log10 of MIC has been reported for the following molecule? `CC(C)c1csc(C(=O)N/N=C/c2ccc([N+](=O)[O-])cc2)n1`
OUT: 1.49

IN: # input molecule: `CC(C)c1csc(-c2nnc(S)n2N)n1` ; wanted: its log10 of MIC
OUT: 0.90

IN: Which log10 of MIC is listed for `CC(C)c1csc(C(=O)N/N=C/c2cccc(Cl)c2Cl)n1` ?
OUT: 2.10
